B1: TMEM175 (parent)
chain: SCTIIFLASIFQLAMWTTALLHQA

Variants of: B1
assay summary: protein stability index of a GFP-peptide fusion (GPS, HEK-293T) (PSI 1-6); higher = more stable;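 note: lentivirally expressed fusions sorted by FACS into six bins by GFP to DsRed ratio, PSI derived from sequencing read proportions per bin multiplied by bin number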
cond: c terminus: a fixed tail appended
endpoint name: protein stability index
Response field accepts a number only; no unit should be typed.

State its protein stability index: S1H
2.8

Assign protein stability index to the following record: M15W
3.1

Complete the entry with protein stability index for L20P
1.81

Read the entry Q12S and write its reported protein stability index.
2.75

Note down protein stability index recorded for T17Q
2.52

Output protein stability index of H22L
1.86

Give me measured protein stability index, please, for this variant: A24W
3.03

Please report protein stability index for the following variant: W16F
1.76

Answer with reported protein stability index of T18I
2.16

Answer with the recorded protein stability index of A8I only.
4.22

For S9R , write its protein stability index.
2.78
